- target desc: Jak2 (UniProt O60674)
- Sequence (O60674 whole entry, looked up): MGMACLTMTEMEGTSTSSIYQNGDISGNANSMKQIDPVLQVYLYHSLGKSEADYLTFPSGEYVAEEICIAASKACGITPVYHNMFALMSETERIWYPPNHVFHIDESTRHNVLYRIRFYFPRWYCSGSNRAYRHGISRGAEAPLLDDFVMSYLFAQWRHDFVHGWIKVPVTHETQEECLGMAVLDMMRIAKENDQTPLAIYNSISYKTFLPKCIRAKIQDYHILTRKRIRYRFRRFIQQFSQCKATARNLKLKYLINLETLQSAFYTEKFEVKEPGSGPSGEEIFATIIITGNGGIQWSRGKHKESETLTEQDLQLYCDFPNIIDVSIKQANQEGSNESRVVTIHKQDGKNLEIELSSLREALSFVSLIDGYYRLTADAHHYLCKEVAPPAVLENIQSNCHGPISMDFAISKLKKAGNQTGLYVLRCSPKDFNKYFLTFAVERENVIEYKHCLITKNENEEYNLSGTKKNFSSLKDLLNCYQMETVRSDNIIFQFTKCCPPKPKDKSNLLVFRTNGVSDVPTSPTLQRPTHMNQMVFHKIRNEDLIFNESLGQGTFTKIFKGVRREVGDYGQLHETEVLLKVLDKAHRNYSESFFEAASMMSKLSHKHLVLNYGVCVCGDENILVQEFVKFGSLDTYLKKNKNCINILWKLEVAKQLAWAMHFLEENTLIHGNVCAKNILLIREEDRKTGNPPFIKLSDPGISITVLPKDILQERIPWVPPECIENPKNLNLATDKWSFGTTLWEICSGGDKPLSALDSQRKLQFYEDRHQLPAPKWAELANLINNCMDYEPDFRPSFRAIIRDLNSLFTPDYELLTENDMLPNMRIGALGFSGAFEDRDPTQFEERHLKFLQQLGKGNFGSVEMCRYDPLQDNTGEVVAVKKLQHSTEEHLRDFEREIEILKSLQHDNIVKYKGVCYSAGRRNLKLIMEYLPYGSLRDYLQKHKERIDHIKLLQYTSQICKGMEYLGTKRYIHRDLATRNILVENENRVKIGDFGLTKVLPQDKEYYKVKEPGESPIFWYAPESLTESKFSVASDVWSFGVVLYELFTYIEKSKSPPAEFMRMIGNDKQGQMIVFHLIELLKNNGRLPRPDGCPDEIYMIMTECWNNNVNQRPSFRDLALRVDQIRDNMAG
- protocol notes: phosphorylation enrichment, bacterial display (enrichment ratio); higher = better substrate or ligand; peptides without Tyr show the background;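 also: 11-residue human phosphosite peptides and single-mutation variants displayed on the E. coli surface, counted by deep sequencing, each peptide's frequency after selection divided by its frequency in the unselected input library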;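 also: frequency after pTyr selection over input frequency; kinase dosed for 20-30% of maximal phosphorylation in three min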
Consider the following sequences; for each one, report its phosphorylation enrichment.
Reply: number alone, nothing else.

// sample LDLSYYPTSSS [EMD_Y182] , its phosphorylation enrichment was 5.02

// sample IRTGIYHGGEP [PIK3CA_Y361_V356I] , its phosphorylation enrichment was 0.653

// sample FNSLLYQVPTS [CALCOCO2_Y358_P357L] , its phosphorylation enrichment was 2.1

// sample TNDMRYPMKSE [TGDS_Y302] , its phosphorylation enrichment was 0.579

// sample VIKSSYQVAKA [CPT1B_Y534_E531K] , its phosphorylation enrichment was 0.406

// sample IHTEFYDGLFP [BCR_Y561_K558T] , its phosphorylation enrichment was 0.993

// sample MKDLTYASLCF [ALOX5_Y446] , its phosphorylation enrichment was 1.01

// sample TVLGEYALPKG [CYP24A1_Y407] , its phosphorylation enrichment was 0.592

// sample LLIMEYAKYGS [RET_Y806_V804M] , its phosphorylation enrichment was 2.18

// sample RRAKGYPINLY [ITGB2_Y125_D128N] , its phosphorylation enrichment was 0.693

// sample PVPKTYDMLNA [PKP2_Y108_K112N] , its phosphorylation enrichment was 1.04

// sample GYKVRYATGSI [FGFR1_Y210_W213G] , its phosphorylation enrichment was 0.456

// sample DEGVNHFMSKG [FBXO8_Y156_Y156H] , its phosphorylation enrichment was 0.42

// sample HFPFQCHRQLY [F12_Y53_Y53C] , its phosphorylation enrichment was 0.861

// sample CPFNLYAEQLS [HGD_Y40_YF] , its phosphorylation enrichment was 0.935

// sample TAGFIYEKWEI [TEC_Y360_S359I] , its phosphorylation enrichment was 1.24

// sample EFRFIYMAVQH [PTPN11_Y515_Q510E_YF] , its phosphorylation enrichment was 1.18

// sample LHRAHYDLCHT [AHSG_Y314_R317C] , its phosphorylation enrichment was 0.88

// sample QPTPGYEVGQR [TSC2_Y1788_E1783Q] , its phosphorylation enrichment was 0.444

// sample ALADKYHGGGG [HBB_Y146_H144D] , its phosphorylation enrichment was 0.439

// sample PSAELYSNALP [PDGFRB_Y716] , its phosphorylation enrichment was 0.849

// sample TISPYYRQSLF [CRYAA_Y48] , its phosphorylation enrichment was 0.745

// sample LLVVLYKFRCF [PSEN1_Y154_Y159F_YF] , its phosphorylation enrichment was 1.85

// sample FEPWVYSLSFE [PRKDC_Y647_F649L_YF] , its phosphorylation enrichment was 1.34

// sample GGGMIYPLDLF , its phosphorylation enrichment was 0.941

// sample MSNSAYVKREV [SCN1A_Y1694_F1692S] , its phosphorylation enrichment was 0.437

// sample RICRRYCQVLN [IQCF1_Y144_R141C] , its phosphorylation enrichment was 0.817

// sample RLLVFYPWTQR [HBB_Y36_V35F] , its phosphorylation enrichment was 1.73

// sample TLQIMYGCDVG [HLA-A_Y123_I119L] , its phosphorylation enrichment was 1.4

* * *

Consider the following sequences; for each one, report its phosphorylation enrichment.
- target desc: FGFR1 (UniProt P11362)
- Sequence (P11362 whole entry, looked up): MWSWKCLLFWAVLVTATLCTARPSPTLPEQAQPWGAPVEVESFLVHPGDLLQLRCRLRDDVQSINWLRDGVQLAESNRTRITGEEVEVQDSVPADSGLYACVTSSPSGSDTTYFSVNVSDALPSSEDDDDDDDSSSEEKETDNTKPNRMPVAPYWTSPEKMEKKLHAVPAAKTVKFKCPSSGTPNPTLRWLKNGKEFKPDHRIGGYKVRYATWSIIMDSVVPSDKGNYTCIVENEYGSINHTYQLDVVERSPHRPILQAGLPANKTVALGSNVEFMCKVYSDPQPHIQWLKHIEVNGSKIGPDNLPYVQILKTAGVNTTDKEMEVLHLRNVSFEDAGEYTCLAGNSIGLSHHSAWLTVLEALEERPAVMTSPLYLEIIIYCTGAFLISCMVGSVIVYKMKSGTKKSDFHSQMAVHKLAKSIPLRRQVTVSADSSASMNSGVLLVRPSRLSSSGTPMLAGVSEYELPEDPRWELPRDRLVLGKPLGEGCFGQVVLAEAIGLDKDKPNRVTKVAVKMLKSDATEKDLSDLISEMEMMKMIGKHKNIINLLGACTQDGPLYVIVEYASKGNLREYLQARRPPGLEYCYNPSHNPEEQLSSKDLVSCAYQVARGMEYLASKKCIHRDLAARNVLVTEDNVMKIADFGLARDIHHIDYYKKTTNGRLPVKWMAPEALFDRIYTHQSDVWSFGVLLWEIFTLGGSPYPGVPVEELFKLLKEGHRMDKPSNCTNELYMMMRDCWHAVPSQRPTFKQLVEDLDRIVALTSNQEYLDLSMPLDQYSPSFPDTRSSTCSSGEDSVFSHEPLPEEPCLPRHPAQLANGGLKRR
- protocol notes: phosphorylation enrichment, bacterial display (enrichment ratio); higher = better substrate or ligand; peptides without Tyr show the background
Reply: number alone, nothing else.

// sample YSPYDYQPCLA [TNS1_Y798] , its phosphorylation enrichment was 2.63

// sample TIMTDYNPNFC [ALK_Y1092_YF] , its phosphorylation enrichment was 0.533

// sample FGVTLYPNSGE [MEP1A_Y472_R476G] , its phosphorylation enrichment was 0.524

// sample RALRHYFKLNI [ETV6_Y401_YF] , its phosphorylation enrichment was 0.485

// sample EFISEFCGEII [EZH2_Y641_Y641F] , its phosphorylation enrichment was 0.574

// sample TLSGIYQFSIA [FOXL2_Y81_I84S_YF] , its phosphorylation enrichment was 0.852

// sample NDFGNYNQQPS [HNRNPA2B1_Y306] , its phosphorylation enrichment was 0.589

// sample PLSGEYFTLQI [TP53_Y327_D324S] , its phosphorylation enrichment was 13.7

// sample KCLAVYQAGAR [APOE_Y180_R176C] , its phosphorylation enrichment was 0.47

// sample FFVVRYCWLRR [MPZ_Y181_YF] , its phosphorylation enrichment was 0.456

// sample TPRNTYKMTSL [MKI67_Y849] , its phosphorylation enrichment was 0.386

// sample STTIHYNFMCN [TP53_Y234_C229S_YF] , its phosphorylation enrichment was 0.523

// sample NDENIYKGLPD [VAV3_Y141_D139N] , its phosphorylation enrichment was 0.529

// sample ISIFRYAKGQP [MPZ_Y82_H81R] , its phosphorylation enrichment was 0.486

* * *

- Tested on: c-Src
- protocol notes: phosphorylation enrichment, bacterial display (enrichment ratio); higher = better substrate or ligand; peptides without Tyr show the background
Consider the following sequences; for each one, report its phosphorylation enrichment.
Reply: number alone, nothing else.

// sample LIDGFYRLTED [JAK2_Y373_A377E_YF] , its phosphorylation enrichment was 0.895

// sample SWSTSYSGFRF [NKAPL_Y91_YF] , its phosphorylation enrichment was 1.69

// sample DRLASYRDKVR [KRT12_Y139_L140R] , its phosphorylation enrichment was 0.347

// sample DDEVFYSPRSL [OTC_Y317] , its phosphorylation enrichment was 0.87

// sample RQLEIYRASRP [ERCC4_Y594] , its phosphorylation enrichment was 0.408

// sample LIFTNYEAGKD [GSTP1_Y112_YF] , its phosphorylation enrichment was 0.998

// sample MANFVYKAGPS [MAML2_Y515_M514V_YF] , its phosphorylation enrichment was 0.365

// sample FRVDCYKNFVA [FHL1_Y213_C209R_YF] , its phosphorylation enrichment was 0.502

// sample CNPRRYPVLMS [OR2T1_Y182_L180R] , its phosphorylation enrichment was 0.494

// sample RMDGTYACSYT [FLNB_Y704] , its phosphorylation enrichment was 3.25

// sample LDLSYYPTSSS [EMD_Y182] , its phosphorylation enrichment was 0.72

// sample RLLVVYPWTQK [HBG1_Y36_R41K] , its phosphorylation enrichment was 0.388

// sample GRQWNYVASMS [KLHL4_Y552] , its phosphorylation enrichment was 0.371

// sample RSAGKYDVYFI [MECP2_Y120_L124F] , its phosphorylation enrichment was 3.15

* * *

- target desc: Hck (UniProt P08631)
- Sequence (P08631 whole entry, looked up): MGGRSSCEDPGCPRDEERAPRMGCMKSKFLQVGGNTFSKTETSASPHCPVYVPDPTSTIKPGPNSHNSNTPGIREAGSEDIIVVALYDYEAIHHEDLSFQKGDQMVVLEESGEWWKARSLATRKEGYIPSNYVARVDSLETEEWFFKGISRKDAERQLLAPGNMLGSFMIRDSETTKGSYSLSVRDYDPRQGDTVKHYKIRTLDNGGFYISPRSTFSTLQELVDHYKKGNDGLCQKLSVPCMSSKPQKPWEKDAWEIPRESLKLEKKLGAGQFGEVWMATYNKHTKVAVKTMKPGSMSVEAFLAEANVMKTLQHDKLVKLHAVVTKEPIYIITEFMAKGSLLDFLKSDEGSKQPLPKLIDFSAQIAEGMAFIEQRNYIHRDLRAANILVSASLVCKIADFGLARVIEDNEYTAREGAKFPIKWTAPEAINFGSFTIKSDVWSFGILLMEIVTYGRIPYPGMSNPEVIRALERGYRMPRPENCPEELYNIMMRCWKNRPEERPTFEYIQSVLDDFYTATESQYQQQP
- protocol notes: phosphorylation enrichment, bacterial display (enrichment ratio); higher = better substrate or ligand; peptides without Tyr show the background
Our labelling divides records by phosphorylation enrichment into ranges: low = under 0.4, middle = from 0.4 up to 0.5, high = 0.5 and over

Data request: Category lookup for the sequence SSTASYFEAPG [RFX2_Y108]
Data returned: middle

Data request: Category lookup for the sequence NIKKEYTKMVQ [PMS2_Y181_A182T]
Data returned: low

Data request: Category lookup for the sequence TPRNTYKMTSV [MKI67_Y849_L854V]
Data returned: middle

Data request: Category lookup for the sequence EQKKYYNAMKK [SCN5A_Y1495]
Data returned: low

Data request: Category lookup for the sequence EKEKEYMLPLD [DNM2_Y563_K562E]
Data returned: middle

Data request: Category lookup for the sequence SSMIDYKPLEK [MYOC_Y479_N480K]
Data returned: middle

Data request: Category lookup for the sequence ARVANYQRDGP [CAT_Y386]
Data returned: low

Data request: Category lookup for the sequence ETVHRYVELLD [AP1S3_Y87_I83T]
Data returned: high

Data request: Category lookup for the sequence FQKDVYDIPPS [NEDD9_Y177_YF]
Data returned: high

Data request: Category lookup for the sequence MSLPGYKLVTG [GJA1_Y286_P283L]
Data returned: low

Data request: Category lookup for the sequence HSGVSYFINLC [IGF2R_Y2024_N2020S_YF]
Data returned: middle

Data request: Category lookup for the sequence EVESPYEVHDY [GIGYF2_Y1168]
Data returned: high

Data request: Category lookup for the sequence PMDGEYFTLQI [TP53_Y327_L323M]
Data returned: high

Data request: Category lookup for the sequence IGNGYYFHVFS [MYBPC3_Y1136_R1138H]
Data returned: middle

Data request: Category lookup for the sequence ELTTCYRKKCS [CCBE1_Y70_C75S]
Data returned: middle

Data request: Category lookup for the sequence IRKKYYRAILE [CHD7_Y1218_Q1214R]
Data returned: middle

Data request: Category lookup for the sequence SFPSFYTSHVQ [NEFL_Y443_YF]
Data returned: high

Data request: Category lookup for the sequence EATKGYLDDPT [G6PD_Y322]
Data returned: middle

Data request: Category lookup for the sequence EREFKYDAHNF [OAT_Y50_G51D_YF]
Data returned: high

Data request: Category lookup for the sequence EILLSDLRTGF [TGM1_Y365_Y365D_YF]
Data returned: middle

Data request: Category lookup for the sequence QTEAQYRFIFM [PTPN11_Y511_YF]
Data returned: high

Data request: Category lookup for the sequence RSDSSYRMSAT [NHS_Y1532]
Data returned: high

Data request: Category lookup for the sequence PLTRSYIREKV [CYP2C8_Y243_A238P]
Data returned: low

Data request: Category lookup for the sequence QLDQRYLLVPE [DDX49_Y223]
Data returned: high
